Record form. Attribute: Plant response rating, Pigweed. Fill in for each entry.
System: redroot pigweed
protocol text: Test A pre-/postemergence herbicide test
Format: in vivo, Amaranthus retroflexus
condition info: Postemergence, 2000 g ai/ha; 0 to 100 scale, 0 no effect, 100 complete control

The following compounds have reported results that may help.
C=Cn1nc(C(C)(C)C)cc1C(=O)Nc1cccc(C(=O)OCC)c1 90
CC(=NO)c1ccnc(NC(=O)c2cc(C(C)(C)C)nn2C)n1 0
C#CCNC(=O)c1cccc(NC(=O)c2sc(C(C)(C)C)nc2CC)n1 25
CCn1nc(C(C)(C)C)cc1C(=O)Nc1cc(C(N)=O)ccc1F 90
CCCCn1nc(C(C)(C)C)cc1C(=O)Nc1cccc(C(=O)NCC)c1 60

Would you mind giving Plant response rating, Pigweed for every compound in the list below?
1. CCOc1ccc(F)c(NC(=O)c2cc(C(C)(C)C)nn2CC)c1
2. CCn1nc(C(C)(C)C)cc1C(=O)Nc1cccc(C(=O)OC)c1C
3. CCc1nc(C(C)(C)C)sc1C(=O)Nc1cccc(C(=O)NCC2CC2)n1
4. CCn1nc(C(C)(C)C)cc1C(=O)Nc1cccc(C(C)=NO)c1

1. 0
2. 35
3. 80
4. 100
